Kindly supply the reported pIC50 values for the records listed here.
- Test system: glycine receptor (GlyR)
- procedure_text: Glycine-induced chloride current (IGly), whole-cell patch-clamp in isolated pyramidal neurons of the rat hippocampus
- Type: cell-based
- study_conditions: read-out: Ipeak IC50 of IGly; inhibition of peak amplitude; 100 μM glycine
Give bare numbers, as −log10 of the molar value.

Would you be so kind as to report pIC50 for each listed record?
1. C[C@]12CC[C@H]3[C@@H](CC=C4C[C@@H](O)CC[C@@]43C)[C@@H]1CC[C@@H]2O
2. C[C@]12CC[C@H](O)C[C@@H]1CC[C@@H]1[C@@H]2CC[C@]2(C)C(=O)CC[C@@H]12 [Compound 4, 3β-Hydroxy-5α-androstan-17-one]
3. C[C@]12CC[C@H]3[C@@H](CCC4=CC(=O)CC[C@@]43C)[C@@H]1CC[C@@H]2O [Compound 1, 17β-Hydroxyandrost-4-en-3-one]
4. C[C@]12CCC(=O)C[C@H]1CC[C@@H]1[C@@H]2CC[C@]2(C)C(=O)CC[C@@H]12
5. C[C@]12CC[C@H](O)CC1=CC[C@@H]1[C@@H]2CC[C@]2(C)C(=O)CC[C@@H]12 [Compound 8, 3β-Hydroxy-androst-5-en-17-one]

// result
4.79
4.77
4.71
4.66
4.67

// query Provide measured pIC50 value, entry: C[C@]12CC[C@H]3[C@@H](CCC4=CC(=O)CC[C@@]43C)[C@@H]1CC[C@H]2O [Compound 5, 17α-Hydroxyandrost-4-en-3-one]
// result 4.77

Values were extracted from paper PMC7098970.
